# target_entity: human mGluR2 (Homo sapiens (Human), UniProt Q14416)
# Sequence (Q14416 19-872): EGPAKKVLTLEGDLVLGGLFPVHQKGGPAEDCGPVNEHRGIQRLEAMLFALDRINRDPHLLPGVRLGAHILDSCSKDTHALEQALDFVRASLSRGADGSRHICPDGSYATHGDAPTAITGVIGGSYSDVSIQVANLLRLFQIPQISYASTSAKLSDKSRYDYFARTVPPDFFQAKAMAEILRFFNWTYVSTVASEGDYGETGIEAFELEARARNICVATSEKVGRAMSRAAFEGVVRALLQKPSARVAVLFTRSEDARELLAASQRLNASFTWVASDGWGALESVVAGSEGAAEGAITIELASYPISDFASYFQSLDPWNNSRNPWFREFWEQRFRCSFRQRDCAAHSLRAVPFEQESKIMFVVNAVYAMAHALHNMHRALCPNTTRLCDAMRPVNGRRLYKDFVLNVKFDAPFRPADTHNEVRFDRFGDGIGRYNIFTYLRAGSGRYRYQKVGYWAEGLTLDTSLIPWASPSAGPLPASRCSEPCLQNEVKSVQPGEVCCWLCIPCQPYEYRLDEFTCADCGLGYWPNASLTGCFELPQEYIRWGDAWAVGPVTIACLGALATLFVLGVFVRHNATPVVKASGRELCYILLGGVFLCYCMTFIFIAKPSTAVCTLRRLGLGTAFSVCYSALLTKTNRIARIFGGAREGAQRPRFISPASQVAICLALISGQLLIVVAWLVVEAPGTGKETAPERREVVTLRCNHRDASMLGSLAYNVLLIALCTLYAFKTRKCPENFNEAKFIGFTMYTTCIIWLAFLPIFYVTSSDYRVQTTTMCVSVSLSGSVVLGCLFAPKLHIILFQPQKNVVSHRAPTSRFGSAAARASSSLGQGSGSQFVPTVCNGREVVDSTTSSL
# assay_method_text: [35S]GTPγS binding assay (Affinity to mGluR2)
# Assay type: biochemical
# condition_label: cell membrane fraction of HEK293 cells stably expressing human mGluR2; glutamic acid 10 μM; inhibition of specific [35S]GTPγS binding
pIC50: −log10 of the molar value.
measure: pIC50

a. Cc1cc(-c2nc(-c3ccc(OC(F)(F)F)c(C)c3)n3c2CCO[C@H](C)C3)cc(CO)n1
b. CCOc1ccc(-c2nc(-c3cc(C)nc(C)c3)c3n2C[C@@H](C)OCC3)cc1C
c. Cc1cc(-c2nc(-c3ccc(Cl)c(CF)c3)n3c2CCO[C@H](C)C3)cc(C)n1
Put the items in sequence by pIC50, from largest down. Respond with an ordered listing of the labels, as requested.
b, a, c
(b: 8.54, a: 7.75, c: 7.43)

###

# target_entity: human mGluR2 (Homo sapiens (Human))
# assay_method_text: [35S]GTPγS binding assay (Affinity to mGluR2)
# Format: biochemical
# condition_label: cell membrane fraction of HEK293 cells stably expressing human mGluR2; glutamic acid 10 μM
pIC50: −log10 of the molar value.
measure: pIC50

- Cc1cc(-c2nc(-c3ccc(OC(F)(F)F)cc3)n3c2CCO[C@H](CF)C3)cc(C)n1 [Example 69]: 7.68
- Cc1cc(-c2nc(-c3ccc(Cl)c(C#N)c3)n3c2CCO[C@H](C)C3)cc(C)n1 [Example 130]: 7.59

a. Cc1cc(-c2nc(-c3ccc(Cl)cc3)n3c2CCO[C@H](C)C3)cc(C)n1 [Example 61]
b. Cc1cc(-c2nc(-c3ccc(F)c(OCC4CCC4)c3)n3c2CCO[C@H](C)C3)cc(C)n1 [Example 98]
Between the entries labeled a and b , whose measured pIC50 is lower? Give the label under which the chosen entry appears.
a

###

# target_entity: UniProtKB Q14416
# assay_method_text: [35S]GTPγS binding assay (Affinity to mGluR2)
# Assay type: biochemical
# condition_label: cell membrane fraction of HEK293 cells stably expressing human mGluR2; glutamic acid 10 μM; inhibition of specific [35S]GTPγS binding
measure: IC50 (nM)

a. Cc1cc(-c2nc(-c3ccc(F)c(Cl)c3)n3c2CCO[C@H](C)C3)ccn1 [Example 145]
b. CCOc1cc(-c2nc(-c3cc(C)nc(C)c3)c3n2CCOCC3)ccc1CC [Example 213]
c. CCOc1cc(-c2nc(-c3cc(C)nc(C)c3)c3n2C[C@@H](C)OCC3)ccc1C [Example 225]
Please list these in order of increasing IC50. Thank you! Your answer should be the labels, listed in the requested order.
c, b, a
(c: 3.9 nM, b: 10.7 nM, a: 45.5 nM)

###

# target_entity: human mGluR2 (Homo sapiens (Human), UniProt Q14416)
# assay_method_text: [35S]GTPγS binding assay (Affinity to mGluR2)
# Type: biochemical
# condition_label: cell membrane fraction of HEK293 cells stably expressing human mGluR2; glutamic acid 10 μM; inhibition of specific [35S]GTPγS binding
pIC50: −log10 of the molar value.
measure: pIC50

* COc1cc(-c2nc(-c3ccnc(C)c3)c3n2C[C@@H](C)OCC3)ccc1OC(F)F [Example 149] | 7.72

P. Cc1cc(-c2nc(-c3ccc(F)c(Cl)c3)n3c2CCO[C@H](CF)C3)ccn1 [Example 172]
Q. Cc1cc(-c2nc(-c3ccc(C)c(OCC(C)C)c3)n3c2CCO[C@H](C)C3)cc(C)n1 [Example 227]
Which value of pIC50 is numerically greater: that of P or that of Q ? Use the label to indicate which entry you chose.
Q
(Q: 7.66, P: 7.42)
